Data origin: PubChem BioAssay AID1117319

Documented IC50 across a set of molecules
target.under.test: Virion infectivity factor (Human immunodeficiency virus type 1 group M subtype B (isolate BH10)) + Virion infectivity factor (Human immunodeficiency virus type 1 group M subtype B (isolate BRU/LAI)) + Virion infectivity factor (Human immunodeficiency virus type 1 group M subtype B (isolate PCV12)) + Virion infectivity factor (Human immunodeficiency virus type 1 group M subtype B (isolate HXB2)) + DNA dC->dU-editing enzyme APOBEC-3G (Homo sapiens) (UniProt P69720+P69721+P69722+P69723+Q9HC16)
test.details: HIV-1 Vif–A3G interaction blockers – biochemical, TR-FRET, GST-Vif 1-94, biotin-A3G peptide, dose response retest, primary screen (AID 1117319);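 note: Vif residues 1-94 fused to GST binding biotinylated APOBEC3G peptide 110-148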
experimental.conditions: TR-FRET GST-Vif / biotin-A3G peptide binding
Records with an inconclusive call do not appear.

Please review the entries below; each comes with its answer.
- molecule: "COc1ccc(CCNC(=O)CN2CCCc3ccccc32)cc1OC"
  recorded.metric: "IC50"
  assay.result: "91 µM"
- molecule: "Cc1cc2c(N)cccc2nn1"
  recorded.metric: "IC50"
  assay.result: "< 0.195 µM"
- molecule: "N=C(N)c1ccc(N=Nc2c(O)ccc3c2[nH]c2ccccc23)cc1"
  recorded.metric: "IC50"
  assay.result: "3.87 µM"
- molecule: "O=C(NCc1ccccn1)c1coc(=O)c(Br)c1"
  recorded.metric: "IC50"
  assay.result: "58.6 µM"
- molecule: "COC/C=C/C1=CC2=CC(=O)C(C)(OC(=O)CCC(=O)OC)C(=O)C2=CO1 (stereo unspecified)"
  recorded.metric: "IC50"
  assay.result: "1.35 µM"
- molecule: "CC(=O)NN1C(=O)/C(=C\\c2ccc(Br)o2)SC1=S"
  recorded.metric: "IC50"
  assay.result: "5.73 µM"
- molecule: "CCCCn1c(N)c(N(CCOC)C(=O)c2cc(-c3ccco3)nc3ccccc23)c(=O)[nH]c1=O"
  recorded.metric: "IC50"
  assay.result: "10.9 µM"
- molecule: "O=C1C2C3C=CC(C3)C2C(=O)N1CNc1ccc(O)cc1 (stereo unspecified)"
  recorded.metric: "IC50"
  assay.result: "2.78 µM"

*Q* // lookup IC50 for O=C(O)C1Nc2c(O)cc(Cl)c([N+](=O)[O-])c2C2C=CCC12 (stereo unspecified)
*A* 0.23 µM

*Q* // lookup IC50 for [O-][n+]1onc2c1CCc1c-2nc(-c2ccccc2)n1OCc1ccccc1
*A* 76.9 µM

*Q* // lookup IC50 for CCCn1c(CNc2ccccc2O)nc2ccccc21
*A* 53 µM
